Where do these numbers come from? They come from paper PMC2935290.

Experimental target: HLA-DPB1*0402 (Homo sapiens, UniProt P04440+P20036, A65V/A84D/A85E/L207M)
Sequence (P04440 30-258 A65V/A84D/A85E): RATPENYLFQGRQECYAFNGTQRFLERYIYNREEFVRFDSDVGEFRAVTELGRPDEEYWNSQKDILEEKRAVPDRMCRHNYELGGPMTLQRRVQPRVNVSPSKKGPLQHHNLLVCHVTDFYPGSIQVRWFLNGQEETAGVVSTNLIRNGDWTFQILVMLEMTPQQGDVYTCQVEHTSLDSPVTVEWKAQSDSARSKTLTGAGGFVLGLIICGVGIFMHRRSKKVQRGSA
Sequence (P20036 29-260): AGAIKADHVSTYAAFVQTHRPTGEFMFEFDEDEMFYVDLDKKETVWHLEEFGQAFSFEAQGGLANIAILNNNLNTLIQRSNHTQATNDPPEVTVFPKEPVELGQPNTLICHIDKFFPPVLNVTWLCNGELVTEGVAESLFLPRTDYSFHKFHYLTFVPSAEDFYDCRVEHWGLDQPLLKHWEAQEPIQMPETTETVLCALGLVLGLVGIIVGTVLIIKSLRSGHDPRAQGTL
Procedure text: biochemical
Measurement type: IC50

Examples with answers:
[
  {
    "Test smiles": "CC[C@H](C)[C@H](NC(=O)[C@H](CCC(N)=O)NC(=O)[C@H](CS)NC(=O)[C@H](Cc1ccc(O)cc1)NC(=O)[C@H](CC(N)=O)NC(=O)[C@H](CO)NC(=O)[C@@H](NC(=O)CNC(=O)[C@H](Cc1ccccc1)NC(=O)[C@H](CCCNC(=N)N)NC(=O)[C@H](CCC(N)=O)NC(=O)[C@H](C)NC(=O)[C@@H](N)CC(N)=O)[C@@H](C)CC)C(=O)O",
    "Val": "0.365 µM"
  },
  {
    "Test smiles": "CC[C@H](C)[C@H](NC(=O)[C@H](Cc1ccc(O)cc1)NC(=O)[C@H](CCC(=O)O)NC(=O)[C@H](Cc1ccccc1)NC(=O)[C@H](C)NC(=O)[C@H](CCC(N)=O)NC(=O)[C@H](CO)NC(=O)[C@@H]1CCCN1C(=O)[C@@H](N)CC(C)C)C(=O)N[C@@H](CC(C)C)C(=O)N[C@@H](Cc1ccc(O)cc1)C(=O)N[C@@H](CC(N)=O)C(=O)N[C@@H](CCCCN)C(=O)NCC(=O)O",
    "Val": "0.0096 µM"
  }
]

We next turn to a different compound, shown below.
The measured IC50 associated with CC[C@H](C)[C@H](NC(=O)[C@H](CC(=O)O)NC(=O)[C@H](CC(=O)O)NC(=O)[C@H](Cc1ccccc1)NC(=O)[C@H](C)NC(=O)[C@H](CCCCN)NC(=O)[C@H](CCC(N)=O)NC(=O)[C@@H](NC(=O)[C@H](CCCCN)NC(=O)[C@@H](N)CCC(=O)O)[C@@H](C)CC)C(=O)N[C@@H](C)C(=O)N[C@@H](CCCCN)C(=O)N[C@@H](Cc1ccc(O)cc1)C(=O)N[C@@H](Cc1ccccc1)C(=O)N[C@@H](CO)C(=O)N[C@@H](CCCCN)C(=O)O reads 0.506 µM
